Tested on: SF-539 CNS
Experiment: NCI-60 one-dose screen, 48 h (100 = growth as untreated, 0 = no growth, -100 = all killed)
Conditions: 10 µM unless noted
About 83,000 compounds went through this panel and 20% of them were active in at least one assay; those are over-represented in the sample as a whole.
OBSERVATION_TYPE: growth (%)
Give bare numbers, in %.

Recorded results for 6 compounds are shown here.
SMILES_TEXT	QUANTITATIVE_RESULT
COc1ccc(/C=C/C(=O)Nc2cccnc2Nc2ccc(F)cc2)cc1	93.7
CN(C)c1ccc2[nH]c3c(C(N)=O)cc(=O)c(=O)c=3oc2c1	7.15
O=C1Nc2ccc(F)cc2/C1=C/c1nc(-c2ccc(F)cc2)n2ccccc12	104
CCOC(=O)c1c(C)c(C(=O)OCC)n(C)c1C	101
O=C(Nc1cccc(C(F)(F)F)c1)Nc1ccc(OCc2nnc(-c3ccc(Cl)cc3)o2)c(F)c1	82.2
C/C(=N\N1CC(=O)NC1=O)c1ccc([N+](=O)[O-])o1	108

// for each compound in input: emit growth
1. Cn1[nH]cc(/C=N/C(N)=O)c1=O
2. O=C(Oc1ccc[nH]c1=O)c1cccc(Cl)c1
3. CCC1=C(c2ccc(OC)cc2)C(C)(C)Oc2c1ccc(O)c2CN1CCCC1
4. O=C(/C(=C/c1cccc([N+](=O)[O-])c1)c1ccccc1)c1ccccc1

A:
1. 113
2. 88.2
3. 69.3
4. 81.6
